# assay: pH profile of enzymes on 1 mM ATP
# Assay type: biochemical
# assay conditions: 50 mM trisodium citrate/citric acid, 5 mM CaCl2, relative to the highest value
value type: Relative activity on ATP, pH 4
Answer field: number only, no words.

{"molecule": "CRC25084: Acid phosphatase (Class A), accession WP_088823167.1, SEQ ID NO:20 (protein, listed as Acinetobacter apis) ADSNNSFLQLNQVPDSLKIVPAPPAFNSVDFLRDKAAYDQARSLVGTARWQQAAVDADLSDANIGKSFSEAFGVEISPTNTPVTYEILRKLRTDAGGYATKTAKEHYMRMRPFVFFNSHTCTPNDEASLSKNGAYPSGHTTIGWSSALILAEIRPDRQNEILERGYQYGQSRVICGVHWQSDVDAGRITGSAIVARLHADKDFAKTLEDAKREIQKKIK", "Relative activity on ATP, pH 4": 0.6}

Query: Request the reported Relative activity on ATP, pH 4 associated with CRC25099: Acid phosphatase (Class A), accession WP_195761705.1, SEQ ID NO:23 (protein, listed as Pantoea sp.) LQSSGFLTAETAPDSLAILPPPPAENSVTFQSDKAQYEAGHVLRNVARTELASKDADYKNFGQAFSAAFGMEISESHTPVLYHLLSEVLQDSHDFAMRGAKDHYKRVRPFVIYKDSTCTPDKDKSMSTTGSYPSGHASFGWAAALILAEINPSRETEIIRRGYDFGESRVVCGAHWQSDVENGRIMGATVVASLHANAKFAELLSQAKNEFATLSAQDSK
Reply: 0.3

Query: Request the reported Relative activity on ATP, pH 4 associated with CRC25100: Acid phosphatase (Class A), internal database, SEQ ID NO:24 (protein, environmental sample) GENSGFLSPETSPNSLEILPPPPSEGSIAFLNDKANYDIGHTLKNEGRLAQAVSDANYKNLTDAFSKAFGETISEQNTPALYSLLQNVLQDSHDFAMRAAKDHYKRVRPFVIYKDHTCTPAEDTKMAKTGSYPSGHASFGWATALVLSEINPARETEILKRGYEFGQSRVICGAHWQSDVDSGRIMGAAVVASLHNNSDFISALAKAKEEFRKK
Reply: 0.1

Query: Request the reported Relative activity on ATP, pH 4 associated with CRC25082: Acid phosphatase (Class A), accession WP_050460978.1, SEQ ID NO:19 (protein, listed as Herbaspirillum autotrophicum) KGAAGFLNGQTAPDSLAILPPPPAEDSVAFQADKAQYETGHVLRDPERVEQARQDADYRNFGHAFSAAFGMEISATHTPVLYQLLTEVLQDSHDYAMKAAKNHYKRVRPFVVYKDPTCTPGQDEKMALSGSYPSGHASFGWAAALVLAEINPARQTEILQRGYAFGKSRVICGAHWQSDVDNGQLMGAAVVAALHSNSQFAAALNAAKNEFAGLRAQDNKK
Reply: 0.0

Each recorded value in this set is attributed to patent US20240124857A1.
